- Target: MSI1 full-length (mouse, UniProt Q61474 1-362)
- Sequence (Q61474 whole entry): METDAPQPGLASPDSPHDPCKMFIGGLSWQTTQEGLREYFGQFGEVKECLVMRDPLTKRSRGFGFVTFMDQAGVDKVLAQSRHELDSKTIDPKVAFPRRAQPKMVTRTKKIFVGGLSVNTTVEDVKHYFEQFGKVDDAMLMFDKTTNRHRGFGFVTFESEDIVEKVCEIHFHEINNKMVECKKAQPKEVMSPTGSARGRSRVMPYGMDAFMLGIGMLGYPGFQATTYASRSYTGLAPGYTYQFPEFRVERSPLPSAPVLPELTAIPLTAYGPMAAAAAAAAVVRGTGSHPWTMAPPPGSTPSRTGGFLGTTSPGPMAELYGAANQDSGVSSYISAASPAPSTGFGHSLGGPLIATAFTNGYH
- Assay Info: nsRBNS (natural sequence RNA bind-n-seq); RBNS binding buffer (assumed for nsRBNS): 25 mM Tris pH 7.5, 150 mM KCl, 3 mM MgCl2, 0.01% Triton X-100, 500 ug/ml BSA, 20 U/ml SUPERase-In, 4 C; UNK is unkempt and MSI1 is Musashi-1; names of the RNAs are library labels; protein concentration not given here; high values mean tight binding
Over roughly 5,800 sequences, “enrichment r” has its median near 0.54; the highest 2% begin near 16. Many of the other results were omitted from the sample, so the highest values are more common in it than they were.
Value Type: binding signal (enrichment R)
Give your result in enrichment R as a bare value.

Consider the binder shown here: chr11:58422334:58423261:-|CDS|ENSG00000172365|control|control|control (ssRNA) RNA: GGGAGUUCUACAGUCCGACGAUCACACACUAGUGAGGUGAUUCUGGUUUUUAUGUCAAGCUUUAAUAUCUUUUUUGUUCUUCUAGUUAUCUUUAUCUCCUACUUGUUCAUAUUCAUCACCAUCUUGAAGAUGCAUUCAGCUAACAACAGAGGAUUGAGCAUCA What is its recorded binding signal? 23.6

Fill in the blank: the reported binding signal of chr20:17613772:17613873:-|3pUTR|ENSG00000125844|unk|total|mutant (ssRNA) RNA: GGGAGUUCUACAGUCCGACGAUCAGCCCCGUGGGUGUGUGGGAGGCCGGGCGCUCUGGGGUCUGUCUGUCAGUGCAAUCGUUCCGUGUUUUUUCAGUGGGGCGGGGCGGGAAGCGGGUGGGACCGGGCAGCCAGUUCUCAAAGCAACAGAGGAUUGAGCAUCA is ____. 0.811

Look up binding signal for this binder: chr1:93888438:93888539:-|3pUTR|ENSG00000023909|msi1|total|mutant (ssRNA) RNA: GGGAGUUCUACAGUCCGACGAUCAGAUAUUUUUCCUGUCAUUGAUGAGAUAUAUCAGAGUAACUGGAGCCGCUGGGAUUUACCCGCCGUGUAAAUAAAAUUCACUCUUCAAUACAUGAAUGGAAACUUAAAUUUUUUUUUAUGCAACAGAGGAUUGAGCAUCA 0.484
